Test: Inhibition of 6His-tagged RING1B (10 to 116 residues)/BMI1 (1 to 104 residues) (unknown origin) extracted from Escherichia coli BL21 (DE3) cells preincubated with compound for 1 hrs followed by 3-(1-(4,26-dioxo-30-((3aS,4S,6aR)-2-oxohexahydro-1H-thieno[3,4-d]imidazol-4-yl)-7,10,13,16,19,22-hexaoxa-3,25-diazatriacontyl)-6-methoxy-1H-indol-4-yl)-5-(6-fluoro-1H-indol-4-yl)-4-isopropyl-1H-pyrrole-2-carboxylic acid addition and measured after 1 hrs by Alphascreen competition assay
Parameters: species or system Homo sapiens
Could you please report measured pIC50 for the items listed next?
Scale: negative log10 of molar concentration, which is what pIC50 denotes.

Input line: For the compound CC(C)c1c(-c2cc(Cl)cc3[nH]ccc23)[nH]c(C(=O)O)c1-c1c(Cl)ccc2[nH]ccc12 , what pIC50 is on record?
Output line: 5.28

Input line: For the compound CC(C)c1c(-c2ccc3[nH]ccc3c2)[nH]c(C(=O)O)c1-c1c(Cl)ccc2[nH]ccc12 , what pIC50 is on record?
Output line: 5.40

Input line: For the compound CC(C)c1c(-c2cc(F)cc3[nH]ccc23)[nH]c(C(=O)O)c1-c1cc(Cl)cc2[nH]ccc12 , what pIC50 is on record?
Output line: 5.55

Input line: For the compound CC(C)c1c(-c2cc(F)cc3[nH]ccc23)[nH]c(C(=O)O)c1-c1cc(F)cc2[nH]ccc12 , what pIC50 is on record?
Output line: 5.37
